# credit: PubChem BioAssay (NCI)

tested on: HS 578T breast; assay: NCI-60 one-dose screen, 48 h (100 = growth as untreated, 0 = no growth, -100 = all killed); settings: 10 µM unless noted
About 83,000 compounds went through this panel and 20% of them were active in at least one assay; those are over-represented in the sample as a whole. Activity calls are given as the source filed them. The calls were made as follows: active = growth percent below 10; inactive = the rest.
Readout Type: growth

compound=Cc1[nH]n(C(N)=S)c(=O)c1N=Nc1ccc(F)c(Cl)c1 result="127% (inactive)"
compound=O=C1Cc2cc(CCn3cncn3)c(Cl)cc2N1 result="28.6% (inactive)"
compound=O=C1NCN(CCO)CN1 result="96.7% (inactive)"
compound=O=C1Cc2cc(CCN3CCN(CCOCCO)CC3)c(Cl)cc2N1Cc1ccc(-c2ccccc2-c2nn[nH]n2)cc1 result="85% (inactive)"
compound=O=C(Nc1nc2ccccc2s1)c1cc(-c2ccc(F)cc2)n2nc(-c3ccccc3)cc2n1 result="59.7% (inactive)"
compound=CCCCCCCC/C=C\CCCCCCCCOc1ccccc1CC(=O)NCC[N+]1(C)CCCC1 result="86.9% (inactive)"
compound=CCCCCCCCCCC[C@@H](C[C@H]1OC(=O)[C@H]1CCCCCC)OC(=O)[C@@H](CC(C)C)NC=O result="53.6% (inactive)"
compound="O=C(NCCc1ccccc1)C1CCC(=O)N1Cc1ccc(Br)cc1 (configuration not stated)" result="113% (inactive)"
compound=O=C(Nc1ccc(Cl)cc1)Nc1ccc(Nc2nncc3ccccc23)cc1 result="58.3% (inactive)"
compound="CSc1ccc2c(c1)N(CCC1CCCCN1C)c1ccccc1S2 (configuration not stated)" result="47.6% (inactive)"
compound=Fc1ccc(-c2nnc(/C=C/c3cn(-c4ccccc4)nc3-c3ccccc3)o2)cc1 result="96.9% (inactive)"
compound="CCCCCCCC1(C)NC(=O)NC1=O (configuration not stated)" result="114% (inactive)"
compound="CC(C)(C)c1ccc(C(O)CCCN2CCC(C(O)(c3ccccc3)c3ccccc3)CC2)cc1 (configuration not stated)" result="-45.3% (active)"
compound=CCC(=O)Nc1ccccc1C#C/C=C\C#Cc1ccccc1C(F)(F)F result="17.1% (inactive)"
compound=CCC1=C(c2ccc(OC)cc2)C(C)(C)Oc2cc(O)c(CN3CCCC3)cc21 result="86% (inactive)"
compound=Cc1c(N(C)CS(=O)(=O)O)c(=O)n(-c2ccccc2)n1C result="125% (inactive)"
compound=Cc1cccc(Cl)c1NC(=O)c1ccc2nc(NC(=O)NC3CC(C)(C)NC(C)(C)C3)sc2c1 result="30.8% (inactive)"
compound=CCN1CCN(c2cc(-c3cn[nH]c3-c3cc(C)cc(OC)c3)nc(-c3cccnc3)n2)CC1 result="68.8% (inactive)"
compound=CNc1ccc(CSc2ccc(Cl)cc2)cc1 result="123% (inactive)"
compound=CCCCCCC/C(=N\N=C(N)N)c1ccc(O)cc1 result="57.3% (inactive)"
compound=Cc1nn(-c2ccc(Cl)cc2)c2nc3c(nc12)c(=O)oc1ccccc13 result="107% (inactive)"
compound=CCCCCCCCCCCCCCCCCC1=NC(C)(C)CN1CCO result="-38.4% (active)"
compound=COc1cc(OC)c2sc(-c3ccc(-n4cncc4-c4ccc(N)cc4)cc3)nc2c1 result="103% (inactive)"
compound="CO[C@H]1CC(O[C@@H]2/C(C)=C/C[C@@H]3C[C@@H](C[C@]4(CC[C@H](C)[C@@H](C5CCCCC5)O4)O3)OC(=O)[C@@H]3C=C(C)/C(=N/O)[C@H]4OC/C(=C\\C=C\\[C@@H]2C)[C@]43O)O[C@@H](C)C1O (some centres not stated)" result="-43.7% (active)"
compound="CO[C@H]1/C=C/O[C@@]2(C)Oc3c(C)c(O)c4c(O)c(c(/C=N/N5CCN(C)CC5)c(O)c4c3C2=O)NC(=O)/C(C)=C\\C=C\\C(C)[C@H](O)[C@@H](C)[C@@H](O)[C@@H](C)[C@@H](OC(C)=O)[C@@H]1C (some centres not stated)" result="109% (inactive)"
compound=CN(C)CCCN1c2nc3ccccc3cc2Sc2cc3ccccc3nc21 result="2.82% (active)"
compound=Cc1ccc2c(c1)O/C(=C\c1ccc([N+](=O)[O-])o1)C2=O result="106% (inactive)"
